molecular target: Follicle-stimulating hormone receptor (Homo sapiens); experiment: Counterscreen for Agonists of Thyroid Stimulating Hormone Receptor: HTRF Activity in a Follicle Stimulating Hormone Receptor Cell Line; conditions: HEK293-FSHR cells, 30 min; series mostly up to 91.7 µM
Records with an inconclusive call do not appear. Calls of active or inactive are those of the source. The call rests on the fitted dose curve; in most records, active means well fitted curve in the direction sought with a large enough effect in the signal ratio; inconclusive means small, poorly fitted or top-dose-only effect, or a change in a side signal; inactive means no such curve, though single readings can be large or run the other way; the % refers to the signal ratio.
quantity: outcome

compound: NC(=O)c1nsc(C(=O)N(CC(=O)NCc2ccc3c(c2)OCO3)C2CCCCC2)c1N
outcome: inactive
--
compound: COc1ccc(C2Nc3ccccc3C(=O)N2Cc2ccco2)cc1COc1ccc(NC(C)=O)cc1 (centres undefined)
outcome: inactive
--
compound: COc1ccc(C(=O)N(Cc2ccco2)Cc2cccs2)c(OC)c1
outcome: inactive
--
compound: COc1cc(OC)c(C(=O)N(Cc2ccco2)Cc2cccs2)cc1OC
outcome: inactive
--
compound: O=C1C2C3CCCC3=C3CCCC3C2C(=O)N1c1ccc(F)cc1 (centres undefined)
outcome: inactive

Reported outcome of O=C1C2C3CCCC3=C3CCCC3C2C(=O)N1c1ccccc1Cl (centres undefined) : inactive

Looking up O=C(COC(=O)C12CC3CC(CC(O)(C3)C1)C2)NCc1ccco1 , I found its outcome recorded as inactive

Note to self: outcome recorded for CCn1c(=O)c(C(=O)CN2CCCc3ccccc32)c(N)n(Cc2ccccc2)c1=O was inactive

Recorded outcome (compound O=C(COC(=O)C12CC3CC(CC(Cl)(C3)C1)C2)NCc1ccco1 ): inactive

For reference, reported outcome for Cc1nn(-c2ccccc2)c(N2CCCC2)c1/C=N/n1cnc2scc(-c3ccccc3)c2c1=O stands at inactive

This collection of values is drawn from PubChem BioAssay AID1403.
